Values from patent US9227979B2

# Test target: UniProtKB P30542
# Sequence (P30542 whole entry): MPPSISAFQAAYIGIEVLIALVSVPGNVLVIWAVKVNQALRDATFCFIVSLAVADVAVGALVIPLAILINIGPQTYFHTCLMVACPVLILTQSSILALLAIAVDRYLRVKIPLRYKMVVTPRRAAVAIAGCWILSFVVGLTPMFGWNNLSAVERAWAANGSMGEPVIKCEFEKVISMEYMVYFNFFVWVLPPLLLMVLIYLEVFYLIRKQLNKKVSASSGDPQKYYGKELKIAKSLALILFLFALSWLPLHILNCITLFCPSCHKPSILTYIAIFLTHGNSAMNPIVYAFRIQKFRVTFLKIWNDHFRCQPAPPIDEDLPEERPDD
# Assay protocol: Radioligand membrane binding assay at hA1 AR ([3H]R-PIA)
# Assay conditions: Table 1; inhibition of radioligand binding at 10 μM
# Protocol: For cell cultures used in radioligand binding assays, after harvest and homogenization, the cells were centrifuged at 200×g for 10 min, and the pellet was re-suspended in 50 mM Tris-HCl buffer (pH 7.5), containing 10 mM MgCl2. The suspension was homogenized with an electric homogenizer for 10 s and was then re-centrifuged at 20,000×g for 20 min at 4° C. […] The protein concentration was measured using the Bradford assay. […]
Reported property: A1 % inhibition

In [3]: df
Out[3]:
                      smiles_representation       test_target  reported_property  test_result
0  Cn1cc2c(nc(NCCOOCCCCNC(=S)Nc3ccc(-c4c5ccc(=O)cc-5oc5cc(O)ccc45)c(C(=O)O)c3)n3nc(-c4ccco4)nc23)n1  UniProtKB P30542    A1 % inhibition         (0%)
1  Cn1cc2c(nc(NCCCOCCOOCCCCCNC(=S)Nc3ccc(-c4c5ccc(=O)cc-5oc5cc(O)ccc45)c(C(=O)O)c3)n3nc(-c4ccco4)nc23)n1  UniProtKB P30542    A1 % inhibition         (0%)

###

Can you tell me pKi for the items I'm about to list?
# Test target: UniProt:P0DMS8
# Sequence (P0DMS8 whole entry): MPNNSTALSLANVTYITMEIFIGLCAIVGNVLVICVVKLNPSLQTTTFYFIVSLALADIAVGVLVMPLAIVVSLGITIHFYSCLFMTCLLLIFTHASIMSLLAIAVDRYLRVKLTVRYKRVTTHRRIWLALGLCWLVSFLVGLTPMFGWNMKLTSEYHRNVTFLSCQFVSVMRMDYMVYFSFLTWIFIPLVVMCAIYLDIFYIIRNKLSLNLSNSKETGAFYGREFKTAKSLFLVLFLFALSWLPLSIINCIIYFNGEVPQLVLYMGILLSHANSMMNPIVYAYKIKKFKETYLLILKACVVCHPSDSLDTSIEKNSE
# Assay protocol: Radioligand membrane binding assay at hA3AR ([125I]I-AB-MECA)
# Assay conditions: Table 1; CHO cells expressing hA3AR; [125I]I-AB-MECA; read-out: A3 Ki
Give bare numbers, as −log10 of the molar value.

Look over these answered cases.
In [3]: df
Out[3]:
                                   compound     test_target  test_result
0  Cn1cc2c(nc(NCCCCNC(=S)Nc3ccc(-c4c5ccc(=O)cc-5oc5cc(O)ccc45)c(C(=O)O)c3)n3nc(-c4ccco4)nc23)n1 [Compound 3]  UniProt:P0DMS8         6.14
1  Cn1cc2c(nc(NNC(=S)Nc3ccc(-c4c5ccc(=O)cc-5oc5cc(O)ccc45)c(C(=O)O)c3)n3nc(-c4ccco4)nc23)n1 [Compound 1]  UniProt:P0DMS8         6.11

Please turn your attention to the following entry.
Request: For the compound Cn1cc2c(nc(NCCCOCCOOCCCCCNC(=S)Nc3ccc(-c4c5ccc(=O)cc-5oc5cc(O)ccc45)c(C(=O)O)c3)n3nc(-c4ccco4)nc23)n1 [Compound 6] , give its measured pKi value.
Result: 5.15

###

# Test target: hA2AAR (Homo sapiens (Human))
# Sequence (P29274 whole entry): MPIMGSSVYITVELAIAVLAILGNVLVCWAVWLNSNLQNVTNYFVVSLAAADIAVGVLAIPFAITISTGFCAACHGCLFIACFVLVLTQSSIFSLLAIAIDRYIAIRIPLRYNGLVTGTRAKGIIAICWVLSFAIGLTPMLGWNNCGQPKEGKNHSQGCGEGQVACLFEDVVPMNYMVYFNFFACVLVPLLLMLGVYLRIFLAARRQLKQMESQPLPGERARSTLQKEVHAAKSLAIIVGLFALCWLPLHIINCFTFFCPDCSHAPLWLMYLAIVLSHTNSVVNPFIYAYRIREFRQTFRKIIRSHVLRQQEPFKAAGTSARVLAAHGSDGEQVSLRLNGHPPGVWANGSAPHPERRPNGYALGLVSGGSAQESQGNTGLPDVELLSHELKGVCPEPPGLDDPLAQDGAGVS
# Assay protocol: Radioligand membrane binding assay at hA2A AR ([3H]CGS21680)
# Assay conditions: Table 3; read-out: A2A Ki
Would you mind telling me the reported Ki of each entry?
Answers are plain numbers, in nM.

Molecule	Test target	Ki / nM
Cn1cc2c(nc(NC(=O)Nc3ccc(CC(=O)NCCOCCOCCNC(=O)OC(C)(C)C)cc3)n3nc(-c4ccco4)nc23)n1	hA2AAR (Homo sapiens (Human))	456
Cn1cc2c(nc(NC(=O)CCCc3cn(CCCCCCNC(=O)c4ccc(-c5c6ccc(=N)c(S(=O)(=O)O)c-6oc6c(S(=O)(=O)O)c(N)ccc56)c(C(=O)O)c4)nn3)n3nc(-c4ccco4)nc23)n1	hA2AAR (Homo sapiens (Human))	90
Cn1cc2c(nc(NC(=O)Nc3ccc(CC(=O)NCCCOCCOCCOCCCNC(=S)Nc4ccc5c(c4)C(=O)OC54c5ccc(O)cc5Oc5cc(O)ccc54)cc3)n3nc(-c4ccco4)nc23)n1	hA2AAR (Homo sapiens (Human))	91.5
Cn1cc2c(nc(NC(=O)Nc3ccc(CC(=O)NCCCCCNC(=S)Nc4ccc5c(c4)C(=O)OC54c5ccc(O)cc5Oc5cc(O)ccc54)cc3)n3nc(-c4ccco4)nc23)n1	hA2AAR (Homo sapiens (Human))	106
C#CCCC(=O)Nc1nc2nn(C)cc2c2nc(-c3ccco3)nn12	hA2AAR (Homo sapiens (Human))	133
Cn1cc2c(nc(NC(=O)Nc3ccc(CC(=O)NCCCOCCOCCOCCCN)cc3)n3nc(-c4ccco4)nc23)n1.O=C(O)C(F)(F)F [Compound 21, trifluoroacetate salt]	hA2AAR (Homo sapiens (Human))	328
C#CCCCCCC(=O)Nc1nc2nn(C)cc2c2nc(-c3ccco3)nn12	hA2AAR (Homo sapiens (Human))	482

Field: next molecule
Request: Look up and report measured Ki for this entry: Cn1cc2c(nc(NC(=O)Nc3ccc(CC(=O)NCCCN)cc3)n3nc(-c4ccco4)nc23)n1.O=C(O)C(F)(F)F [Compound 17, trifluoroacetate salt]
Result: 175
